Overview of recorded inhibition for various compounds
- system.under.test: Virion infectivity factor (Human immunodeficiency virus type 1 group M subtype B (isolate BH10)) + Virion infectivity factor (Human immunodeficiency virus type 1 group M subtype B (isolate BRU/LAI)) + Virion infectivity factor (Human immunodeficiency virus type 1 group M subtype B (isolate PCV12)) + Virion infectivity factor (Human immunodeficiency virus type 1 group M subtype B (isolate HXB2)) + DNA dC->dU-editing enzyme APOBEC-3G (Homo sapiens) (UniProt P69720+P69721+P69722+P69723+Q9HC16)
- assay.text: inhibitors of Vif binding to APOBEC3G peptide, primary screen, biochemical, TR-FRET, GST-Vif 1-94, biotin-A3G peptide, dose response retest (AID 1117319);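 also: Vif residues 1-94 fused to GST binding biotinylated APOBEC3G peptide 110-148; 0% = full assay without inhibitor and 100% = GST in place of GST-Vif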
- test.conditions: active compounds read high
About 1,500 (0.58%) of roughly 260,000 compounds were called active. Another 5% or so got no clear call; they are omitted. Only a sample is shown. Entries with a potency or affinity are not part of this list.

- compound: "NC(=O)C1(C(=O)O)OC1(c1ccc(Cl)cc1)c1ccccc1Cl (stereo unspecified)"
  inhibition [%]: 5.1
- compound: "COc1ccc(C(=O)Nc2nnc(-c3ccco3)s2)cc1"
  inhibition [%]: -3.84
- compound: "CCc1c(C)[nH]c2ccccc2c1=O"
  inhibition [%]: 22.4
- compound: "CCCCNc1oc(-c2cccs2)nc1S(=O)(=O)c1ccccc1"
  inhibition [%]: -0.64
- compound: "COC(=O)c1ccc(C2C(Oc3ccccc3)C(=O)N2CCc2ccc(F)cc2)cc1 (stereo unspecified)"
  inhibition [%]: -5.73
- compound: "COC(=O)C1CCCCN1C(=O)c1cc(COc2cccc3cccnc23)on1 (stereo unspecified)"
  inhibition [%]: 4.07
- compound: "CC1(C)Cc2cccc(OCC(=O)N3CCN(c4ccccc4F)CC3)c2O1"
  inhibition [%]: -1.24
- compound: "Cc1ccc(C(=O)Nc2nc(-c3ccco3)c(-c3ccco3)s2)o1"
  inhibition [%]: 23.7
- compound: "O=C(Nc1nc(-c2cccs2)c(-c2ccccc2)s1)c1ccco1"
  inhibition [%]: 2.82
- compound: "O=C(NC(=S)Nc1nc2ccc(F)cc2s1)c1ccco1"
  inhibition [%]: 9.98
- compound: "O=C(Nc1ccc(F)cc1F)c1cc(-c2ccco2)on1"
  inhibition [%]: 5.56

====

- system.under.test: Virion infectivity factor (Human immunodeficiency virus type 1 group M subtype B (isolate BH10)) + Virion infectivity factor (Human immunodeficiency virus type 1 group M subtype B (isolate BRU/LAI)) + Virion infectivity factor (Human immunodeficiency virus type 1 group M subtype B (isolate PCV12)) + Virion infectivity factor (Human immunodeficiency virus type 1 group M subtype B (isolate HXB2)) + DNA dC->dU-editing enzyme APOBEC-3G (Homo sapiens) (UniProt P69720+P69721+P69722+P69723+Q9HC16)
- assay.text: inhibitors of Vif binding to APOBEC3G peptide, primary screen, biochemical, TR-FRET, GST-Vif 1-94, biotin-A3G peptide, dose response retest (AID 1117319);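 also: Vif residues 1-94 fused to GST binding biotinylated APOBEC3G peptide 110-148; 0% = full assay without inhibitor and 100% = GST in place of GST-Vif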
- test.conditions: active compounds read high
Among all 260,000 compounds or so, about 1,500 (0.58%) were called active. Roughly 5% stayed inconclusive and do not appear here. Not all results are given here. Measured potencies and affinities stand elsewhere.
Overview of recorded inhibition for various compounds

- compound: "CC(=O)NN1C(=O)/C(=C\\c2ccccc2)SC1=S"
  value.unit: "%"
  inhibition: 1.87
- compound: "COc1cc(C(C#N)N2CCCCC2)ccc1O (stereo unspecified)"
  value.unit: "%"
  inhibition: 7.46
- compound: "CC(=O)NN1C(=O)/C(=C\\c2ccc(C)cc2)SC1=S"
  value.unit: "%"
  inhibition: -1.41
- compound: "CC(=O)NN1C(=O)/C(=C/c2ccc(C(C)C)cc2)SC1=S"
  value.unit: "%"
  inhibition: -3.47
- compound: "O=C(O)c1cc(S(=O)(=O)O)cc(Nc2c3ccccc3nc3ccccc23)c1O"
  value.unit: "%"
  inhibition: 5.42
- compound: "Nc1ccc(C(=O)Nc2ccc3cc(S(=O)(=O)O)ccc3c2)cc1"
  value.unit: "%"
  inhibition: 7.06
- compound: "CCN(CC)C(=O)c1ccc(-c2ccccc2)cc1"
  value.unit: "%"
  inhibition: 3.81
- compound: "CC(=O)Nc1ccc2c(O)cc(S(=O)(=O)O)cc2c1"
  value.unit: "%"
  inhibition: 19.9
- compound: "COc1cccc(C(C#N)N2N=C(C)CC2(C)C)c1O (stereo unspecified)"
  value.unit: "%"
  inhibition: -2.38
- compound: "COc1cc(/C(O)=C(\\C#N)c2nc3ccccc3[nH]2)cc(OC)c1OC"
  value.unit: "%"
  inhibition: 3.24
- compound: "CCOc1ccc(C(=O)NCC(=O)NCC(c2ccco2)N2CCCCC2)cc1 (stereo unspecified)"
  value.unit: "%"
  inhibition: -8.81

====

Overview of recorded inhibition for various molecules
- system.under.test: Virion infectivity factor (Human immunodeficiency virus type 1 group M subtype B (isolate BH10)) + Virion infectivity factor (Human immunodeficiency virus type 1 group M subtype B (isolate BRU/LAI)) + Virion infectivity factor (Human immunodeficiency virus type 1 group M subtype B (isolate PCV12)) + Virion infectivity factor (Human immunodeficiency virus type 1 group M subtype B (isolate HXB2)) + DNA dC->dU-editing enzyme APOBEC-3G (Homo sapiens) (UniProt P69720+P69721+P69722+P69723+Q9HC16)
- assay.text: inhibitors of Vif binding to APOBEC3G peptide, primary screen, biochemical, TR-FRET, GST-Vif 1-94, biotin-A3G peptide, dose response retest (AID 1117319);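 also: Vif residues 1-94 fused to GST binding biotinylated APOBEC3G peptide 110-148; 0% = full assay without inhibitor and 100% = GST in place of GST-Vif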
- test.conditions: active compounds read high
In all, about 260,000 compounds went through this assay and about 1,500 (0.58%) were called active. Not shown: some 5% with an inconclusive outcome. These entries were drawn from the full list. Measured potencies and affinities stand elsewhere.
quantity.kind: inhibition (%)

- molecule: "CCOc1ccc(S(=O)(=O)n2ccc(C)n2)cc1"
  reported.result: -9.61
- molecule: "O=C(NCc1ccco1)c1cc(-c2ccccc2)on1"
  reported.result: -2.43
- molecule: "O=C(/C=C/c1ccc(O)c(O)c1)c1ccccc1O"
  reported.result: 13.2
- molecule: "CCC1(C)Cc2nc3sc(C(=O)O)c(N)c3cc2CO1 (configuration not stated)"
  reported.result: 32.8
- molecule: "O=C(COc1ccccc1)N1CCN(C(=O)c2cccs2)CC1"
  reported.result: 17.7
- molecule: "O=C(Nn1cnnc1)c1ccc(Cl)c([N+](=O)[O-])c1"
  reported.result: -7.17
- molecule: "CC(C)(C)CN1CCNC(=O)C1CC(=O)NCCN1CCCc2ccccc21 (configuration not stated)"
  reported.result: 20.1
- molecule: "CCCC1CC(C#N)N(N(C)C)C1=C(C#N)C#N (configuration not stated)"
  reported.result: -4.37
- molecule: "COc1cc(OC)cc(-c2cc(N3C(=O)Nc4ccccc4N3O)n[nH]2)c1"
  reported.result: 2.06
- molecule: "O=C(O)c1ccccc1Nc1ccccc1C(=O)O"
  reported.result: 5.44
- molecule: "COc1ccc(C(=O)OCCN=C2NS(=O)(=O)c3ccccc32)cc1OC"
  reported.result: 0.81
- molecule: "Cc1ccc(C2/C(=C(\\O)c3ccc4c(c3)OCCO4)C(=O)C(=O)N2CC2CCCO2)cc1 (configuration not stated)"
  reported.result: -0.97

====

Overview of recorded inhibition for various compounds
- system.under.test: Virion infectivity factor (Human immunodeficiency virus type 1 group M subtype B (isolate BH10)) + Virion infectivity factor (Human immunodeficiency virus type 1 group M subtype B (isolate BRU/LAI)) + Virion infectivity factor (Human immunodeficiency virus type 1 group M subtype B (isolate PCV12)) + Virion infectivity factor (Human immunodeficiency virus type 1 group M subtype B (isolate HXB2)) + DNA dC->dU-editing enzyme APOBEC-3G (Homo sapiens) (UniProt P69720+P69721+P69722+P69723+Q9HC16)
- assay.text: inhibitors of Vif binding to APOBEC3G peptide, primary screen, biochemical, TR-FRET, GST-Vif 1-94, biotin-A3G peptide, dose response retest (AID 1117319);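 also: Vif residues 1-94 fused to GST binding biotinylated APOBEC3G peptide 110-148; 0% = full assay without inhibitor and 100% = GST in place of GST-Vif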
- test.conditions: active compounds read high
Hit rate of the full screen: of about 260,000 compounds, about 1,500 (0.58%) were called active. Not shown: some 5% with an inconclusive outcome. These entries were drawn from the full list. Potency and affinity values are given separately.
quantity.kind: inhibition (%)

- compound: "Cc1ccc(C(=O)N/C(=C/c2ccco2)C(=O)NC2CCS(=O)(=O)C2)cc1 (centres undefined)"
  reported.result: -1.97
- compound: "Nc1c(Cl)cc2c(c1Oc1ccccc1)C(=O)c1ccccc1C2=O"
  reported.result: 7.9
- compound: "Cc1ccc(/C=C2\\SC(=S)N(C3CCS(=O)(=O)C3)C2=O)cc1 (centres undefined)"
  reported.result: 6.18
- compound: "CN(C)c1c2ccccc2nc2c(F)c(F)c(F)c(F)c12"
  reported.result: -2.85
- compound: "CC1=CN2C(=N)/C(=C/c3ccc(Sc4ccc(C)cc4)o3)C(=O)N=C2S1"
  reported.result: -0.88
- compound: "CC1=CN2C(=N)/C(=C/c3ccco3)C(=O)N=C2S1"
  reported.result: 14.9
- compound: "Cc1c(N(C)C)nc2ccccc2c1N"
  reported.result: -3.71
- compound: "COc1cccc(/C=N/NC(=O)C(=O)NCc2ccco2)c1O"
  reported.result: -4.26
- compound: "CC(C)c1ccc(C(=O)OCC(=O)c2c(N)n(C)c(=O)n(C)c2=O)cc1"
  reported.result: 2
- compound: "O=C(NCC(c1cccs1)N1CCOCC1)c1ccc(Br)o1 (centres undefined)"
  reported.result: 22.6
- compound: "COc1ccc2c([N+](=O)[O-])c(Cl)[nH]c2c1"
  reported.result: 21.2
- compound: "O=C1/C(=C/c2cccs2)SC(=S)N1C1CCS(=O)(=O)C1 (centres undefined)"
  reported.result: 0.42
- compound: "CC1CCC(NC(=O)c2cc(Cl)nc3ccccc23)CC1 (centres undefined)"
  reported.result: -9.79
- compound: "Cc1ccc(S(=O)(=O)N2CCCCC2)cc1C(=O)NCCCN1CCOCC1"
  reported.result: 1.73
- compound: "CC(C)OC(=O)CSc1nnc(-c2ccncc2)n1N"
  reported.result: -2.43
- compound: "CNC(=O)OCc1nc(SSC(C)(C)C)n(C)c1COC(=O)NC"
  reported.result: -4.09
- compound: "COc1ccc(C(=O)c2ccc(N(C)C)cc2)c2ccccc12"
  reported.result: -5.09
- compound: "COc1ccc(-c2ccc3c(c2)C2CC3CCN2C(=O)C(C)(C)C)cc1 (centres undefined)"
  reported.result: -6.26
- compound: "Cc1cc(C)n(/N=C/c2ccco2)c(=O)c1C#N"
  reported.result: 11.3
- compound: "O=C(c1n[nH]c(=O)c2ccccc12)N1CCN(Cc2ccc3c(c2)OCO3)CC1"
  reported.result: 4.07
- compound: "CCn1nnnc1NC(=O)c1cc(Cl)c(OC)c(Cl)c1"
  reported.result: 0.23
- compound: "CNCCCOc1cccc(Oc2ccccc2)c1"
  reported.result: 9.66
- compound: "CC(c1ccccc1)n1c(SCC(=O)Nc2ccccc2)n[nH]c1=O (centres undefined)"
  reported.result: -10.8
- compound: "COc1cc2[nH]c3c(Cl)ncnc3c2cc1OC"
  reported.result: -0.29
